- System: HL-60(TB) leukemia
- Test details: NCI tumour cell line growth inhibition, 48 h
# TGI listing for each entry below

>>> reported("COc1cc(Nc2nccc(Nc3ccc4c(C)[nH]nc4c3)n2)cc(OC)c1OC")
"9.04 µM"
>>> reported("O=C(N/N=C/c1ccc2c(c1)OCO2)Nc1ccccc1Cl")
"> 23.1 µM"

The record that follows has no TGI shown yet.
Recorded TGI for CCOC(=O)C(N)C[S][Sn]([CH3])([CH3])[Cl] (stereo not drawn) on HL-60(TB) leukemia was > 77.4 µM

* * *

- System: HT29 colon
- Test details: NCI tumour cell line growth inhibition, 48 h
# GI50 listing for each entry below

Looking up CC[C@H](NC(=O)[C@H](C)NC)C(=O)N1C[C@@H](O)C[C@H]1Cc1c(-c2[nH]c3cc(F)ccc3c2C[C@@H]2C[C@H](O)CN2C(=O)[C@H](CC)NC(=O)[C@H](C)NC)[nH]c2cc(F)ccc12 , I found its GI50 recorded as 62 µM

Looking up CC(C)c1ccc(C(=O)Nc2nc3ccc(O)cc3s2)cc1 , I found its GI50 recorded as 3.38 µM

Looking up O=c1ccn(C2OC(CO)C(O)C2F)c(=O)[nH]1 (stereo unspecified) , I found its GI50 recorded as > 1000 µM

Looking up CSc1ccc(C2=NN(C(=O)c3ccc(F)cc3)C(c3ccc(F)cc3)C2)cc1 (stereo unspecified) , I found its GI50 recorded as 4.37 µM

Looking up COc1cc(Nc2nccc(Nc3ccc4c(C)[nH]nc4c3)n2)cc(OC)c1OC , I found its GI50 recorded as 0.916 µM

Looking up CCOC(=O)C(N)C[S][Sn]([CH3])([CH3])[Cl] (stereo unspecified) , I found its GI50 recorded as > 100 µM

* * *

- Test system: RXF 393 renal
- Test details: NCI tumour cell line growth inhibition, 48 h
# TGI listing for each entry below

Check out these entries, answers already filled in.
>>> reported("CCOC(=O)C(Cc1c[nH]c2ccc(N)cc12)(NC(C)=O)C(=O)OCC")
"> 1000 µM"
>>> reported("O=C(O)c1ccc(P(=O)(O)c2ccc(C(=O)O)cc2Br)c(Br)c1")
"> 100 µM"

The record that follows has no TGI shown yet.
Looking up NC(=O)C(=Cc1ccc(C(O)P(=O)(O)O)cc1)C(N)=O (stereo not drawn) , I found its TGI recorded as > 100 µM

* * *

# TGI listing for each entry below
- Tested on: NCI-H23 lung
- Test details: NCI tumour cell line growth inhibition, 48 h

Check out these entries, answers already filled in.
>>> reported("COc1cc(OC)c(/C=C/S(=O)(=O)Cc2cnc(OC)c(N)c2)c(OC)c1")
"> 100 µM"
>>> reported("CC12CCC3[C@@H](CC3(C)C)C(O)(CCC1=O)C2 (stereo partly specified)")
"> 100 µM"
>>> reported("CC(=O)C(=[N+]=[N-])C(=O)NCC#N")
"> 10 µM"

The record that follows has no TGI shown yet.
Looking up O=C1c2ccccc2-c2cccc3ccc(Cc4ccc5ccccc5c4)c1c23 , I found its TGI recorded as > 100 µM

* * *

- Tested on: MALME-3M melanoma
- Test details: NCI tumour cell line growth inhibition, 48 h
Observable: TGI

>>> reported("CCCCCCCCC[C@@H]1CC(=O)OCC2OC(O[C@H](CCCCCCCCC)CC(=O)OCC3OC(O[C@H](CCCCCCCCC)CC(=O)OCC4OC(O1)C(O)C(O)C4O)C(O)C(O)C3O)C(O)C(O)C2O (some centres not stated)")
"22.3 µM"
>>> reported("CCOC(=O)C(C(=O)OCC)=C1NC2(c3ccccc3Nc3ccc(C)cc32)C(C#N)S1 (configuration not stated)")
"30.7 µM"
>>> reported("CCCCc1c2c(nc3c1CCC/C3=C\\c1ccccc1)C(=O)CCC2")
"52 µM"
>>> reported("CC(=O)c1c(C)[nH]c(-c2nc3ccc(N4CCN(C)CC4)cc3[nH]2)c1-c1ccc(OCC2CCOCC2)cc1")
"2.57 µM"
>>> reported("CC(C)CS(=O)(=O)/C(=C(\\c1ccc(Br)cc1)S(=O)(=O)CC(C)C)c1ccc(Br)cc1")
"> 100 µM"

Looking up O=[N+]([O-])c1cc(Cl)c(Cl)c([N+](=O)[O-])c1Cl , I found its TGI recorded as 2.18 µM

Looking up Cc1cc(C)nc(NS(=O)(=O)c2ccc(Nc3c4ccccc4nc4c(C(=O)NNCCO)cccc34)cc2)n1 , I found its TGI recorded as > 100 µM

Looking up O=C(Nc1cccc2ccccc12)Nn1cnnc1 , I found its TGI recorded as > 100 µM

Looking up Cc1cc([C@H](C#N)c2nc3ccccc3[nH]2)nc(Cl)n1 , I found its TGI recorded as > 100 µM

Looking up COc1cc(S(=O)(=O)Nc2nc(-c3ccc(N4C(=O)CSC4c4cccs4)cc3)cs2)ccc1Cl (configuration not stated) , I found its TGI recorded as > 100 µM

* * *

# TGI listing for each entry below
- System: HS 578T breast
- Test details: NCI tumour cell line growth inhibition, 48 h

Check out these entries, answers already filled in.
>>> reported("Cc1ccc2c(c1)C(=O)/C(=N/Nc1ccc(Cl)cc1)CCO2")
"> 100 µM"
>>> reported("COc1ccc(OC)c2sc(N3C(=O)/C(=C/c4ccc(Cl)cc4)N=C3c3ccccc3)nc12")
"> 100 µM"

The record that follows has no TGI shown yet.
Looking up CCOC(=O)C(Cc1c[nH]c2ccc(N)cc12)(NC(C)=O)C(=O)OCC , I found its TGI recorded as > 1000 µM

* * *

- Tested on: HOP-62 NSCLC
- Test details: NCI tumour cell line growth inhibition, 48 h
# TGI listing for each entry below

>>> reported("ClC1(Cl)C(c2ccccc2)C1c1ccccc1 (stereo not drawn)")
"> 100 µM"
>>> reported("CC(C)CS(=O)(=O)/C(=C(\\c1ccc(Br)cc1)S(=O)(=O)CC(C)C)c1ccc(Br)cc1")
"> 100 µM"

The record that follows has no TGI shown yet.
Looking up O/N=C(\c1ccccc1)N1CCCCC1 , I found its TGI recorded as > 100 µM

* * *

# TGI listing for each entry below
- Test system: OVCAR-4 ovarian
- Test details: NCI tumour cell line growth inhibition, 48 h

>>> reported("COc1cc(OC)c(/C=C/S(=O)(=O)Cc2cnc(OC)c(N)c2)c(OC)c1")
"> 100 µM"
>>> reported("COc1cc(Nc2nccc(Nc3ccc4c(C)[nH]nc4c3)n2)cc(OC)c1OC")
"> 20.7 µM"

The record that follows has no TGI shown yet.
Recorded TGI for c1ccc2c(c1)CCC/C2=N\OCC1CO1 (stereo not drawn) on OVCAR-4 ovarian was > 100 µM

* * *

# GI50 listing for each entry below
- Tested on: SF-295 CNS
- Test details: NCI tumour cell line growth inhibition, 48 h

Check out these entries, answers already filled in.
>>> reported("COc1cc(OC)cc(C2CC(=O)Nc3c2c(C)nn3-c2nc3ccccc3[nH]2)c1 (stereo unspecified)")
"1.58 µM"
>>> reported("CSc1ccc(C2=NN(C(=O)c3ccc(F)cc3)C(c3ccc(F)cc3)C2)cc1 (stereo unspecified)")
"17.9 µM"
>>> reported("O=S(=O)(NC1=NCCN1C(=S)SN1CCn2c1nsc2=S)c1ccc(Br)cc1")
"46.2 µM"
>>> reported("CCOC(=O)c1cc(C#N)c(=O)n(/N=C(\\C)c2ccncc2)c1O")
"> 100 µM"
>>> reported("CN[C@@H](C)C(=O)N[C@H](C(=O)N1CCC[C@H]1C(=O)N[C@H]1c2ccccc2C[C@H]1OCC#CC#CCO[C@@H]1Cc2ccccc2[C@@H]1NC(=O)[C@@H]1CCCN1C(=O)[C@@H](NC(=O)[C@H](C)NC)C1CCCCC1)C1CCCCC1")
"0.514 µM"

The record that follows has no GI50 shown yet.
Looking up CC(=O)[O-].CC(=O)[O-].[Pt+2].c1cscn1.c1cscn1 , I found its GI50 recorded as > 100 µM

* * *

- Test system: SK-MEL-28 melanoma
- Test details: NCI tumour cell line growth inhibition, 48 h
Observable: GI50

Check out these entries, answers already filled in.
>>> reported("CC[C@H](NC(=O)[C@H](C)NC)C(=O)N1C[C@@H](O)C[C@H]1Cc1c(-c2[nH]c3cc(F)ccc3c2C[C@@H]2C[C@H](O)CN2C(=O)[C@H](CC)NC(=O)[C@H](C)NC)[nH]c2cc(F)ccc12")
"> 100 µM"
>>> reported("CCN1CCN(C(=O)[C@]23CC[C@@H](C)[C@H](C)[C@@H]2C2=CC[C@@H]4[C@@]5(C)C/C(=C/c6ccncc6)C(=O)C(C)(C)[C@@H]5CC[C@@]4(C)[C@]2(C)CC3)CC1")
"1.65 µM"

Looking up COC(=O)c1cc2c(cc1Cl)SC(N(N(C)C)S(=O)(=O)c1ccc(Br)s1)=NS2(=O)=O , I found its GI50 recorded as 17.8 µM

Looking up CC(=O)[O-].CC(=O)[O-].[Pt+2].c1cscn1.c1cscn1 , I found its GI50 recorded as > 100 µM

Looking up NOCC(=O)O , I found its GI50 recorded as > 100 µM

Looking up CCN(CC)CCCC(C)Nc1c2ccc(Cl)cc2nc2ccc(OC)cc12 (centres undefined) , I found its GI50 recorded as 2.27 µM

Looking up O=c1ccn(C2OC(CO)C(O)C2F)c(=O)[nH]1 (centres undefined) , I found its GI50 recorded as > 1000 µM

Looking up CCOC(=O)C(N)C[S][Sn]([CH3])([CH3])[Cl] (centres undefined) , I found its GI50 recorded as > 100 µM

Looking up COc1cc(OC)cc(C2CC(=O)Nc3c2c(C)nn3-c2nc3ccccc3[nH]2)c1 (centres undefined) , I found its GI50 recorded as 3.64 µM

Origin of values: PubChem BioAssay (NCI)
